System: cynomolgus monkey VTCN1 protein
Experiment: Affinity by OCTET, cynomolgus monkey VTCN1
Format: binding
Settings: Table 12
# cynomolgus monkey k(off) per record follows

molecule	cynomolgus monkey k(off)
4C7_63A1: fully human VTCN1 antibody; VH SEQ ID NO: 248, VL SEQ ID NO: 252 (antibody, V domains shown) VH: QVQLQESGPGLVKPSGTLSLTCAVSGGSISSSNWWSWVRQPPGKGLEAIGEIYHSGNTNYNPSLKSRVTISVDKSKNQFSLKLSSVTAADTAIYYCARDGYSSGWYWGYFDYWGQGTLVTVSS VL: EIVMTQSPATLSVSPGERATLSCRASQSVNSNLAWYQQKPGQAPWLLIYGASTRATGIPARFSGSGSGTEFTLTISSLQSEDFAVYYCQQYNHWPYTFGQGTKLEIK	5.80E−03
13H9_44D2: fully human VTCN1 antibody; VH SEQ ID NO: 272, VL SEQ ID NO: 276 (antibody, V domains shown) VH: QVQLQESGPGLVKPSETLSLTCTVSGGSISSYYWSWIRQPPGKGLEWIGYIYYSGSTNNNPSLKSRVTISVDTSKNQFSLKLISVTAADTAVYYCARVYNNYDWGFDYWGQGTLVTVSS VL: EIVMTQSPATLSVSPGERATLSCRASQSVSSNLAWYQQKPGQAPRLLIYGASTRATGIPARFSGSGSGTEFTLTIRSLQSEDFAVYYCQQYHNWPLTFGGGTKLEIK	1.67E−01
